Test system: Trichophyton rubrum
Experiment: Antifungal activity against Trichophyton rubrum after 7 days by serial dilution method
Format: functional
Settings: 168 h
# maps each entry to its log10 of MIC80
// stored as log10 of MIC80 expressed in µg/mL

# example entries with known answers
>  <COMPOUND>
OC(CN1CCC(=NOCc2ccccc2Cl)CC1)(Cn1cncn1)c1ccc(F)cc1F (racemic)

>  <REPORTED_MEASUREMENT>
-1.20

$$$$
>  <COMPOUND>
N#Cc1ccc(CON=C2CCN(CC(O)(Cn3cncn3)c3ccc(F)cc3F)CC2)cc1 (racemic)

>  <REPORTED_MEASUREMENT>
-1.20

$$$$
>  <COMPOUND>
ON=C1CCN(CC(O)(Cn2cncn2)c2ccc(F)cc2F)CC1 (stereo unspecified)

>  <REPORTED_MEASUREMENT>
1.20

$$$$
>  <COMPOUND>
O=[N+]([O-])c1cccc(CON=C2CCN(CC(O)(Cn3cncn3)c3ccc(F)cc3F)CC2)c1 (racemic)

>  <REPORTED_MEASUREMENT>
-0.60

$$$$
>  <COMPOUND>
CCc1ccc(CON=C2CCN(CC(O)(Cn3cncn3)c3ccc(F)cc3F)CC2)cc1 (racemic)

>  <REPORTED_MEASUREMENT>
1.20

$$$$

Item: OC(CN1CCC(=NOCc2ccc(C(F)(F)F)cc2)CC1)(Cn1cncn1)c1ccc(F)cc1F (racemic) Test system: Trichophyton rubrum Read-out: log10 of MIC80 Value: ?
1.20

Same question, OC(CN1CCC(=NOCc2ccccc2F)CC1)(Cn1cncn1)c1ccc(F)cc1F (racemic) this time
-1.20

Same question, OC(CN1CCC(=NOCc2ccc3ccccc3c2)CC1)(Cn1cncn1)c1ccc(F)cc1F (racemic) this time
-1.20

Same question, OC(CN1CCC(=NOCc2ccc(F)cc2)CC1)(Cn1cncn1)c1ccc(F)cc1F (racemic) this time
-1.20

Same question, Cc1ccc(CON=C2CCN(CC(O)(Cn3cncn3)c3ccc(F)cc3F)CC2)cc1 (racemic) this time
1.20
